Molecular target: T1, human IL-17D (human, UniProt Q8TAD2 18-202, limits assumed)
T1 construct: expressed in E. coli; also called hIL-17D
T1 sequence (looked up): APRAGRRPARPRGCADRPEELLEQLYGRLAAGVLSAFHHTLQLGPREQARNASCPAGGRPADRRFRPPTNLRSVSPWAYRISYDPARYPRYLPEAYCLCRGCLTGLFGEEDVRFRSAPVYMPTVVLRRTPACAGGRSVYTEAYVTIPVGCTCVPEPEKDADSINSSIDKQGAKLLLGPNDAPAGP
Experiment: SPR, cytokine on chip
measured_endpoint: binding result

Below, each entry is followed by its recorded binding result result.
[
  {
    "binder": "08H01 (VHH, Class 3) VHH: EVQLVESGGGLVQAGGSLRLSCGASGGTFSSYATGWFRQAPGKEREFVAVLRWSDSHTAYADSVEGRFTISRDGAKNTVYLQMSSLKPEDTAIYYCTTGTRPGEWHYWGQGTQVTVSS",
    "binding result": "no binding"
  },
  {
    "binder": "11C08 (VHH, Class 4) VHH: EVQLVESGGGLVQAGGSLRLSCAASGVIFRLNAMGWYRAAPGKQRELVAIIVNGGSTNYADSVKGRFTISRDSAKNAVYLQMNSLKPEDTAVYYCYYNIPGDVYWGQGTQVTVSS",
    "binding result": "no binding"
  },
  {
    "binder": "16A04 (VHH, Class 3; also called IL17MS16A04) VHH: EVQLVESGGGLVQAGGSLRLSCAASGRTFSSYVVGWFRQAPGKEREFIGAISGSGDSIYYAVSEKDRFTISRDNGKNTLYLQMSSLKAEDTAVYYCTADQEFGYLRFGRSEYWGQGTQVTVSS",
    "binding result": "no binding"
  },
  {
    "binder": "17C01 (VHH, Class 4) VHH: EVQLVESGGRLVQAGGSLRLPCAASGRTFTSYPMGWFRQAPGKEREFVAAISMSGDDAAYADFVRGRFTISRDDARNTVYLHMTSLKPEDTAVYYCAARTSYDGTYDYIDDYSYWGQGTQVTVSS",
    "binding result": "no binding"
  },
  {
    "binder": "04G01 (VHH, Class 2; also called IL17MS04G01; 04G1) VHH: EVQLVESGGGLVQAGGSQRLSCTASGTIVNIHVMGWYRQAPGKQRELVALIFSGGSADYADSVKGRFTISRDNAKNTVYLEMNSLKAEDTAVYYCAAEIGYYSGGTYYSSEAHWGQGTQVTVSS",
    "binding result": "no binding"
  }
]

Request: Give its binding result value. Item: 13B05 (VHH, Class 4) VHH: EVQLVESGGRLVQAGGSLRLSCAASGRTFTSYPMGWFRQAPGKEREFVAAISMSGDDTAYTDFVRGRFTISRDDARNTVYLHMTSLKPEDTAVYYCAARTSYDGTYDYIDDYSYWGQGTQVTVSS
Response: no binding

Request: Give its binding result value. Item: 02A08 (VHH, Class 2) VHH: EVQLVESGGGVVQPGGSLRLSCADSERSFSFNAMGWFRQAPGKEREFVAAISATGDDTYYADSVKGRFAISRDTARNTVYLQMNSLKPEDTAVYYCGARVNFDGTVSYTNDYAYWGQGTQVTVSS
Response: no binding

Request: Give its binding result value. Item: 07B11 (VHH, Class 3) VHH: EVQLVESGGGLVQAGGSLRLSCVASGRAFSSYVMGWFRQAPGMEREFVALIRWSDGITGYVDSVKGRFTISRDNAKNTVYLQMNSLKPEDTAVYYCAAAVRPGDYDYWGQGTQVTVSS
Response: no binding

Request: Give its binding result value. Item: 07B09 (VHH, Class 3) VHH: EVQLVESGGGLVQAGGSLRLSCGASGGTFSSYATGWFRQAPGKEREFVAVLRWSDGHTAYADSVKGRFTISRDGAKNTMYLQMSSLKPEDTAIYYCTTATRPGEWDYWGQGTQVTVSS
Response: no binding

Request: Give its binding result value. Item: 06E11 (VHH, Class 3) VHH: EVQLVESGGGLVQAGGSLRLSCPVSGRAFSRGRLGWFRQAPGKEREFVAVAHWSGAITSYADSVKGRFTFSRDNAKNTMNLQMNSLKPEDTAVYYCAADSETSGNWVYWGQGTQVTVSS
Response: no binding

Ref: patent US20210130452A1
